system-name: T1, Rb^P A490S (human, UniProt P06400 380-788, A490S)
T1 construct: also called variant 15
T1 sequence (looked up): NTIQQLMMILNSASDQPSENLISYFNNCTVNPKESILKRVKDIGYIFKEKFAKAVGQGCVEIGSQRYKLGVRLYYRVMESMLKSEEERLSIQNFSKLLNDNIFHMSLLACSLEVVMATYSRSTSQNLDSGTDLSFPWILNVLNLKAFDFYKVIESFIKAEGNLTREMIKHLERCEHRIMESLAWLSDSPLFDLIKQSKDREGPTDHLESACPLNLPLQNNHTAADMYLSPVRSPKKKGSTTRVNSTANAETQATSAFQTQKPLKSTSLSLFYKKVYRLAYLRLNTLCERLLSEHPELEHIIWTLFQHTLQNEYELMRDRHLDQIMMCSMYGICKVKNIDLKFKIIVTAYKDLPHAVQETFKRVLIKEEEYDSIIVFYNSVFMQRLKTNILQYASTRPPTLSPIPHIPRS
assay-explanation: fluorescence polarisation; 37 °C, after the 25 °C reading ramped over 7 min to 37 °C and 2 min incubation; unlabeled Rb^P against 1.5 nM TMR-E2F1^TD or 7.5 nM TMR-E7^LxCxE; 25 mM Tris pH 8.0, 200 mM NaCl, 1 mM DTT, 0.1% Tween-20; apparent Kd
measurement-parameters: both partners purified
No end group written: not given here. TMR = tetramethyl rhodamine dye
experimental-endpoint: Kd
Number first, unit second.

# input Item DLYCYEQLN (also: TMR label, position not given here, source: synthetic peptide, bought: GenScript) [TMR-E7^LxCxE, LxCxE peptide of the E7 oncoprotein from HPV] : provide Kd
# output 15 nM

# input Give Kd for the following binder: {TMR}-GEGIRDLFDCDFGDLTPLD (also called E2F^TD; source: synthetic peptide, bought: GenScript) [TMR-E2F1^TD, peptide of the E2F1 transactivation domain]
# output 29 nM
